- tested.system: T1, hPRLR.mFc (soluble dimeric human PRLR) (human)
- T1 construct: dimeric PRLR construct
- T1 chain: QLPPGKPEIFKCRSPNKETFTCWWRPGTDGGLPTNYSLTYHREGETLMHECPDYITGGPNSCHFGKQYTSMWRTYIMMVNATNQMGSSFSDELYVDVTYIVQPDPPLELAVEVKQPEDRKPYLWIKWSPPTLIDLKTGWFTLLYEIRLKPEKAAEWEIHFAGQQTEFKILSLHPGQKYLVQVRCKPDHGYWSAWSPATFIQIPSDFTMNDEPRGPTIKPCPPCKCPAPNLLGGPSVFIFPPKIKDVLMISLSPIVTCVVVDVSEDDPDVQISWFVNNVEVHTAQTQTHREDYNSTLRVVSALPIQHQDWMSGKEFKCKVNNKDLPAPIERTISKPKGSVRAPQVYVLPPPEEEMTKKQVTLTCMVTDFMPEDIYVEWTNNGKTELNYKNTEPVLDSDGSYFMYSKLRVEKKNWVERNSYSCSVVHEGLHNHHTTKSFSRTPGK
- assay.name: SPR (Biacore), antibody capture, 37 C
value.type: kon
# output: numeric value plus its unit

So what's the measured kon for this one? H1H6803P (antibody, human IgG1, V domains shown, human IgG1 Fc (H1H)) VH: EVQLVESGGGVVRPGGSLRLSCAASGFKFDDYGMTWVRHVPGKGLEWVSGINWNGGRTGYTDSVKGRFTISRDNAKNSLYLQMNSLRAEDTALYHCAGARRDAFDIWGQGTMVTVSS VL: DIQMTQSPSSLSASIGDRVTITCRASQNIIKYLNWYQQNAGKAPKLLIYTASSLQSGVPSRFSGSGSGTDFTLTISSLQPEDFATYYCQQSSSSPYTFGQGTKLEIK 134000 M⁻¹ s⁻¹

So what's the measured kon for this one? H1H6958N2 (antibody, human IgG1, V domains shown, also called H2M6958N2) VH: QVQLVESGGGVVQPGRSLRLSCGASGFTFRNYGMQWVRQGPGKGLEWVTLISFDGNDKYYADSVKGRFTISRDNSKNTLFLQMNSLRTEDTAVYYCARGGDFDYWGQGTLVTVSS VL: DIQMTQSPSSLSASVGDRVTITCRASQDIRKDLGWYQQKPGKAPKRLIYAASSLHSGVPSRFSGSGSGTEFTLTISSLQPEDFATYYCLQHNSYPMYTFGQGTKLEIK 829000 M⁻¹ s⁻¹

So what's the measured kon for this one? H1H6785P (antibody, human IgG1, V domains shown, human IgG1 Fc (H1H)) VH: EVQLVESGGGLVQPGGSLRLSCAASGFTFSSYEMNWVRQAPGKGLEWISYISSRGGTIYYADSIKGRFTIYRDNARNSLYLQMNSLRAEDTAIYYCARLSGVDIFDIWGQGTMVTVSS VL: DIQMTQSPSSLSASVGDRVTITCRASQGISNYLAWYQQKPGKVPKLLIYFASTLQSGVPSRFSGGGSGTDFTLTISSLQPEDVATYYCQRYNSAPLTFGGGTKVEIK 456000 M⁻¹ s⁻¹

So what's the measured kon for this one? H1H6762P (antibody, human IgG1, V domains shown, human IgG1 Fc (H1H)) VH: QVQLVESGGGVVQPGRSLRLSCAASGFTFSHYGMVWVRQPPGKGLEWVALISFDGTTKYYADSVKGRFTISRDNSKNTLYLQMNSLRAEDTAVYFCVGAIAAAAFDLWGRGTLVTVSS VL: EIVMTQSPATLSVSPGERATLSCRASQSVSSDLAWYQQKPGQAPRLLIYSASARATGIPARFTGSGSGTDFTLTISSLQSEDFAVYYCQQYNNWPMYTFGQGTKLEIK 801000 M⁻¹ s⁻¹

So what's the measured kon for this one? H1H6801P (antibody, human IgG1, V domains shown, human IgG1 Fc (H1H)) VH: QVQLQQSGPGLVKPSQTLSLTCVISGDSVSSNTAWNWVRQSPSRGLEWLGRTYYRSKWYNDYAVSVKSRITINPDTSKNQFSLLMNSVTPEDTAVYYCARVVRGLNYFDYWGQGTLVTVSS VL: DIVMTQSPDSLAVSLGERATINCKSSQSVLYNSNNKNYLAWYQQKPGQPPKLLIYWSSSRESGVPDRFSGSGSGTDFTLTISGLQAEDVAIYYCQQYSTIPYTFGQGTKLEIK 793000 M⁻¹ s⁻¹

So what's the measured kon for this one? H1H6976N (antibody, human IgG1, V domains shown, also called H2M6976N) VH: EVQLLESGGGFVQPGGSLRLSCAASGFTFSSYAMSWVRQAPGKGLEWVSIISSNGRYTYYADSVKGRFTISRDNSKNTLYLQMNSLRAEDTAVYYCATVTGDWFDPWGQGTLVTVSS VL: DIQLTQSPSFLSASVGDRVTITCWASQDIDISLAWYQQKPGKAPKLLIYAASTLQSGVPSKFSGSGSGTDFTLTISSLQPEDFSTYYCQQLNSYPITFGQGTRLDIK 1.37e+06 M⁻¹ s⁻¹

So what's the measured kon for this one? H1H6795P (antibody, human IgG1, V domains shown, human IgG1 Fc (H1H)) VH: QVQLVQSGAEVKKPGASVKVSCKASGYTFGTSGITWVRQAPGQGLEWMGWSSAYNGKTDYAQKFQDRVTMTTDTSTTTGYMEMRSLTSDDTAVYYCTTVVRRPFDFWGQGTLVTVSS VL: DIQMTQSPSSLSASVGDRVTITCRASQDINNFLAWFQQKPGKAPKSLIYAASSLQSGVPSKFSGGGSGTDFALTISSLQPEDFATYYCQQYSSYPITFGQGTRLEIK 1.94e+06 M⁻¹ s⁻¹

So what's the measured kon for this one? H1H6790P (antibody, human IgG1, V domains shown, human IgG1 Fc (H1H)) VH: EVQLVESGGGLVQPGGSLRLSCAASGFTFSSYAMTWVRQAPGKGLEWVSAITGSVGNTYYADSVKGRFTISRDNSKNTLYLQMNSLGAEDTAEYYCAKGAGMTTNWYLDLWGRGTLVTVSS VL: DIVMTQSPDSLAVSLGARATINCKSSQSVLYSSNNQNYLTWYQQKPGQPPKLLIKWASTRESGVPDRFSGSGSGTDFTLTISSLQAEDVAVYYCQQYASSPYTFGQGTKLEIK 646000 M⁻¹ s⁻¹

So what's the measured kon for this one? H1H6774P (antibody, human IgG1, V domains shown, human IgG1 Fc (H1H)) VH: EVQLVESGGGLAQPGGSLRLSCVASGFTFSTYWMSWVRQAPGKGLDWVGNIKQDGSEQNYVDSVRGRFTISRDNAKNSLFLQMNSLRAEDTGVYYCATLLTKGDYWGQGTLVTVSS VL: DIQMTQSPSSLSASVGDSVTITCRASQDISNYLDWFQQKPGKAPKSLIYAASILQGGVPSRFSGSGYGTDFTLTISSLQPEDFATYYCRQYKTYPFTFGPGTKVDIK 1.41e+06 M⁻¹ s⁻¹

So what's the measured kon for this one? H1H6804P (antibody, human IgG1, V domains shown, human IgG1 Fc (H1H)) VH: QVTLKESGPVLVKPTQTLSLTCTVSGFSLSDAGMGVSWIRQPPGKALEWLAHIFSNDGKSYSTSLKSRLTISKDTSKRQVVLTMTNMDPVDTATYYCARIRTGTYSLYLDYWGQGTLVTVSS VL: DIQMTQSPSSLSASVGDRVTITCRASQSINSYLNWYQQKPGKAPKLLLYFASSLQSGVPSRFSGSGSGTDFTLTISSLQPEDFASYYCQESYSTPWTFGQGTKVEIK 554000 M⁻¹ s⁻¹
